LD50 at 24 h listing for selected compounds.
- Test Name: Toxicity in ip dosed Mus musculus Swiss-Webster (mouse) assessed as mortality measured after 24 hr
- Assay type: organism-based
- Experimental Setup: in vivo

# LD50 at 24 h (compound: CO[C@@H]1[C@@H](C)CC[C@]2(O)[C@]3(C)C[C@]4(OC)O[C@]12[C@]1(O)[C@@]3(OC)[C@H](OC(=O)c2cccn2C)[C@](O)(C(C)C)[C@]41C ) is > 20 mg/kg

# LD50 at 24 h (compound: C=C1CC[C@]2(O)[C@]3(C)C[C@]4(O)O[C@@]2([C@@H]1O)[C@]1(O)[C@@]3(O)[C@H](O)[C@](O)(C(C)C)[C@@]14C [DIDEHYDRORYANODOL] ) is > 20 mg/kg

# LD50 at 24 h (compound: CC(C)[C@@]1(O)[C@@H](OC(=O)c2ccc[nH]2)[C@@]2(O)[C@@]3(C)C[C@]4(O)O[C@@]5([C@H](O)[C@H](C)CC[C@]35O)[C@@]2(O)[C@]14C [EPIRYANODINE] ) is 0.47 mg/kg

# LD50 at 24 h (compound: CC(CO)[C@@]1(O)[C@@H](OC(=O)c2ccc[nH]2)[C@@]2(O)[C@@]3(C)C[C@]4(O)O[C@@]5([C@H](O)[C@@H](C)CC[C@]35O)[C@@]2(O)[C@]14C (stereo not given in full) [18-HYDROXYRYANODINE] ) is 0.9 mg/kg

# LD50 at 24 h (compound: CC(C)[C@@]1(O)[C@@H](OC(=O)c2cccn2Cc2ccccc2)[C@@]2(O)[C@@]3(C)C[C@]4(O)O[C@@]5([C@H](O)[C@@H](C)CC[C@]35O)[C@@]2(O)[C@]14C ) is 6.3 mg/kg

---

pIC50 listing for selected molecules.
- Tgt: Ryanodine receptor 1 (Oryctolagus cuniculus)
- Sequence (P11716 whole entry): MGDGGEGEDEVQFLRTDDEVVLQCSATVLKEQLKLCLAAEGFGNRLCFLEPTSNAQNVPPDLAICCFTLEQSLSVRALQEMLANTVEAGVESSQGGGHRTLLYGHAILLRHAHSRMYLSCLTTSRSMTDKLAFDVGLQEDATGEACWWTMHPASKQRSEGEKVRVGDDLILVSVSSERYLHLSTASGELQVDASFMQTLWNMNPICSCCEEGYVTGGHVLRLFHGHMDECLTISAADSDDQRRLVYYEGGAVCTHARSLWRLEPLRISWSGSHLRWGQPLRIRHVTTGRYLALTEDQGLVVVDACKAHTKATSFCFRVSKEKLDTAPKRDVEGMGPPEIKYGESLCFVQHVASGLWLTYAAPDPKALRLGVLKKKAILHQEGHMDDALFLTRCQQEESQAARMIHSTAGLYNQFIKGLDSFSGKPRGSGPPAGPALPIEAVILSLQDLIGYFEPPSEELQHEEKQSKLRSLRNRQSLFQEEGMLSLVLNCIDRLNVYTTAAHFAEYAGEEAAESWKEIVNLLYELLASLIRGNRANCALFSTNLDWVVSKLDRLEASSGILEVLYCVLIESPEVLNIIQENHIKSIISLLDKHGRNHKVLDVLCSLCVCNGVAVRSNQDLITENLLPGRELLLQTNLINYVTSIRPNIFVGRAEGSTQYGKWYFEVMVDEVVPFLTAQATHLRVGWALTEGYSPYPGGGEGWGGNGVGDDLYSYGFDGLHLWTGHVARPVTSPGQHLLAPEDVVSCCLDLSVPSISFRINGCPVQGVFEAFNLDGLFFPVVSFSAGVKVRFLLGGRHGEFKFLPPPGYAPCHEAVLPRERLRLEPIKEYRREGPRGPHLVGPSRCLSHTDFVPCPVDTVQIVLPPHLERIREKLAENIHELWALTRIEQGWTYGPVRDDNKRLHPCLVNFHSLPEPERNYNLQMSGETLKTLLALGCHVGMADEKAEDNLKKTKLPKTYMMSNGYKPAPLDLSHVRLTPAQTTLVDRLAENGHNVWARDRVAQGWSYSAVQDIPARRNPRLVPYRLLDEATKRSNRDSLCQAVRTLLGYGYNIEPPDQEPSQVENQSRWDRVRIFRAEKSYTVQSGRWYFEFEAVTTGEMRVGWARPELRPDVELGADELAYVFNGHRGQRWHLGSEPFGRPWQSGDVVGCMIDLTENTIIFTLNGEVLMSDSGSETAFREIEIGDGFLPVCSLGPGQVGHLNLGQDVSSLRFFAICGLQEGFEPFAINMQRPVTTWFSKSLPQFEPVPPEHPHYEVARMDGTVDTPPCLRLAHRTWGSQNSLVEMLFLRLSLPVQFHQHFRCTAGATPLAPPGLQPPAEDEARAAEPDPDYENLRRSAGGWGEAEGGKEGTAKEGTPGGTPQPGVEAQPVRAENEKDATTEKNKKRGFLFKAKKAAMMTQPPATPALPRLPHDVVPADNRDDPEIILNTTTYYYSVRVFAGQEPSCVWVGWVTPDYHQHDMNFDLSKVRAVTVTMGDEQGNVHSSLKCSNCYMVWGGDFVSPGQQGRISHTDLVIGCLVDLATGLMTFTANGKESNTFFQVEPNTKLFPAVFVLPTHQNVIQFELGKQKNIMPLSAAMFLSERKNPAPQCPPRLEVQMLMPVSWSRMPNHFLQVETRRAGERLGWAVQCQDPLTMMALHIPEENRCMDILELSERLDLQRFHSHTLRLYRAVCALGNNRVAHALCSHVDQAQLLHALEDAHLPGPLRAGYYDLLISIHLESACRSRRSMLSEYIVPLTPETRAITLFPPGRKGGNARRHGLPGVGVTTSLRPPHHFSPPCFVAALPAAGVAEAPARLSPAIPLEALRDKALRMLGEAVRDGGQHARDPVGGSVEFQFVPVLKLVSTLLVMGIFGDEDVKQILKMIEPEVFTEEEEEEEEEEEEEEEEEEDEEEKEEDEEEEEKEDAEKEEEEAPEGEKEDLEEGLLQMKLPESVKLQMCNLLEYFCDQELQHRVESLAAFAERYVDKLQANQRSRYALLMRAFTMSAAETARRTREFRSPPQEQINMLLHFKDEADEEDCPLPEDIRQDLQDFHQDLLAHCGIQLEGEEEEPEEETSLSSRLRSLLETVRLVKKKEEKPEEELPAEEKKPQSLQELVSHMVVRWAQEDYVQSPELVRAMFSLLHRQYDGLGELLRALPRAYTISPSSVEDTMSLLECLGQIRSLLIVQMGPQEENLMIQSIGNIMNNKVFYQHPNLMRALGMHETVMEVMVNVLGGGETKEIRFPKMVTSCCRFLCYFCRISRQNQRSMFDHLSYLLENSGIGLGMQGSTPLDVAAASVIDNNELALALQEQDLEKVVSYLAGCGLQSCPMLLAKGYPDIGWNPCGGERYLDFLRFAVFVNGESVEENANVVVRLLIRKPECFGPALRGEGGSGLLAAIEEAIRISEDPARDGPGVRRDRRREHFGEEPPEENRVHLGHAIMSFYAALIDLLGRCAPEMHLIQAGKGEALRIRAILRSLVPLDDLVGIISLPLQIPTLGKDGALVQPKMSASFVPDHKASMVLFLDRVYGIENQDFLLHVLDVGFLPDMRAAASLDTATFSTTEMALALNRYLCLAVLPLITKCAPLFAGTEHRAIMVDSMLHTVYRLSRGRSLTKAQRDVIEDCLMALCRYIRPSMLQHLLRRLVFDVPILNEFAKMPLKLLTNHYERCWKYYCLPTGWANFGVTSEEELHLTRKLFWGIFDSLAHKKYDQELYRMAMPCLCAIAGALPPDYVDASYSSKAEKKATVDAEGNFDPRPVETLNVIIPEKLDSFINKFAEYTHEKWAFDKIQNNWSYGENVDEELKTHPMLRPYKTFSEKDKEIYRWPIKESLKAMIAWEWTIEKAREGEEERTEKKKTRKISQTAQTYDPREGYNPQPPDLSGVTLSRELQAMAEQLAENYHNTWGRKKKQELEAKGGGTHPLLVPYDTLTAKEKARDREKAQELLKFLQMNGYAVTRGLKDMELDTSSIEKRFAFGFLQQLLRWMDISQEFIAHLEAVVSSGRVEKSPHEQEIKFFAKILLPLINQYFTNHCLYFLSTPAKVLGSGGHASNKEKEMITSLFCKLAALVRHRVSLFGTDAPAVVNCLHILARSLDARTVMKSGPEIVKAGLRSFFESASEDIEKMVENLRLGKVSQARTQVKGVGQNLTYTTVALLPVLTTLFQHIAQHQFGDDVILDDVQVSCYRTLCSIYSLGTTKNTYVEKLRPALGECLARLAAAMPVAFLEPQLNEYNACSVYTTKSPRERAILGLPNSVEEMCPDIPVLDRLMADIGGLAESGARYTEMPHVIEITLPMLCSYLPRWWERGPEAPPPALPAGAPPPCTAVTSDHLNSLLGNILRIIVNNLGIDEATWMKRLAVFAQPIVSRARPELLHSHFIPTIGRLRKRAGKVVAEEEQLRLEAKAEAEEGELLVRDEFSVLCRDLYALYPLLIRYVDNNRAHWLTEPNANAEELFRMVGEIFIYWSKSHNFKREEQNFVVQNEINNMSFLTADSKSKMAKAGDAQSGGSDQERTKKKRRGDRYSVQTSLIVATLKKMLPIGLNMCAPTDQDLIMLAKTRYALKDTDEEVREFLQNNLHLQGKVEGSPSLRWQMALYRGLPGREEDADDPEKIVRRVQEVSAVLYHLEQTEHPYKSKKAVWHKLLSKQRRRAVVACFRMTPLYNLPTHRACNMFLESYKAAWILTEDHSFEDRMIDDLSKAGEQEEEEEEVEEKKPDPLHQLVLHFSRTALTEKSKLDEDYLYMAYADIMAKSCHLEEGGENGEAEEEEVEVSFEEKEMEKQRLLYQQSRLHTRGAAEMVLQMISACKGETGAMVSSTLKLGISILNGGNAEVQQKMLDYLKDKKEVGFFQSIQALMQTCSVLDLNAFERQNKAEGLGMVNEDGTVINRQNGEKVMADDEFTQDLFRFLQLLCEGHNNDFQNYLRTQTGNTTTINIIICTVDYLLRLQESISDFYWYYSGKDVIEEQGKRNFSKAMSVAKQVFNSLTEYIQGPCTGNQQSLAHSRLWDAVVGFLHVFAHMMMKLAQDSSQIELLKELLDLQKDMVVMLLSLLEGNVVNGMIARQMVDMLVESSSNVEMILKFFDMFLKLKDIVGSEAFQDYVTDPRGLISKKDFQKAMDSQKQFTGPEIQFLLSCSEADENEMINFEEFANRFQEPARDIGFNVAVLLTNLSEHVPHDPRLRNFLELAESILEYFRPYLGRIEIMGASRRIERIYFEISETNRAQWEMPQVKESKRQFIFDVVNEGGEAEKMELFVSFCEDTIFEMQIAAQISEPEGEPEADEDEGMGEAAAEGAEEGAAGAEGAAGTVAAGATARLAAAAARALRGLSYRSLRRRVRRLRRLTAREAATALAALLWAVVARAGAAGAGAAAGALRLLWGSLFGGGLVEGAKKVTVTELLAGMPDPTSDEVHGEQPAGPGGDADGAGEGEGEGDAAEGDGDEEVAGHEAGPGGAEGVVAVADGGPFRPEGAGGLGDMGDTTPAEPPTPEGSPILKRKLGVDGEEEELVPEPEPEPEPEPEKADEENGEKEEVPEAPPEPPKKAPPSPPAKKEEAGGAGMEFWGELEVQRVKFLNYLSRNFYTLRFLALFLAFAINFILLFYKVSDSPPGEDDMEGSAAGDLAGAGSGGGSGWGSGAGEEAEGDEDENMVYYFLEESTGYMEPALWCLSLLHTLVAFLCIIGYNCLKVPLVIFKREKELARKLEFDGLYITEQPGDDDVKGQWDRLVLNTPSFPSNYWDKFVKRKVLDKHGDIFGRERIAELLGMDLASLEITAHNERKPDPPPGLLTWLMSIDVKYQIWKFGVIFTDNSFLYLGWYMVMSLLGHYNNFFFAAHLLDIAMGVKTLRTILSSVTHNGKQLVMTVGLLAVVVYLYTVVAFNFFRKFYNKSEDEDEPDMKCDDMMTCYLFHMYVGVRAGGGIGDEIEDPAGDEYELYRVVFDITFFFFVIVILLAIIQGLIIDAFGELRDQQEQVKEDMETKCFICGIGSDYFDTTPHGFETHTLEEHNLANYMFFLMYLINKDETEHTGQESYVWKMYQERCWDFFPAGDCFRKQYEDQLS
Bear in mind: pIC50 is minus log10 of a mol/L concentration; give just that figure.

Example molecules with recorded pIC50:
CC(C)[C@@]1(O)[C@@H](OC(=O)c2ccc[nH]2)[C@@]2(O)[C@@]3(C)C[C@]4(O)O[C@@]5([C@H](O)C6(CC[C@]35O)CO6)[C@@]2(O)[C@]14C (stereo partly drawn) [9,21-EPOXYRYANODINE]; 6.85
CC(C)[C@@]1(O)[C@@H](OC(=O)c2ccc[nH]2)[C@@]2(O)[C@@]3(C)C[C@]4(O)O[C@@]5(C(=O)[C@@H](C)CC[C@]35O)[C@@]2(O)[C@]14C [10-KETORYANODINE]; 7.00

Param item: CC(=O)O[C@@H]1[C@@H](C)CC[C@]2(O)[C@]3(C)C[C@]4(O)O[C@]12[C@]1(O)[C@@]3(O)[C@H](OC(=O)c2ccc[nH]2)[C@](O)(C(C)C)[C@@]14C [10-ACETYLRYANODINE] ; param system: Ryanodine receptor 1 (Oryctolagus cuniculus); output pIC50: 6.85

Cited source for all entries: ChEMBL document CHEMBL3045240
